MEASURED_ON: UniProt Q70CQ3
Sequence (Q70CQ3 whole entry, looked up): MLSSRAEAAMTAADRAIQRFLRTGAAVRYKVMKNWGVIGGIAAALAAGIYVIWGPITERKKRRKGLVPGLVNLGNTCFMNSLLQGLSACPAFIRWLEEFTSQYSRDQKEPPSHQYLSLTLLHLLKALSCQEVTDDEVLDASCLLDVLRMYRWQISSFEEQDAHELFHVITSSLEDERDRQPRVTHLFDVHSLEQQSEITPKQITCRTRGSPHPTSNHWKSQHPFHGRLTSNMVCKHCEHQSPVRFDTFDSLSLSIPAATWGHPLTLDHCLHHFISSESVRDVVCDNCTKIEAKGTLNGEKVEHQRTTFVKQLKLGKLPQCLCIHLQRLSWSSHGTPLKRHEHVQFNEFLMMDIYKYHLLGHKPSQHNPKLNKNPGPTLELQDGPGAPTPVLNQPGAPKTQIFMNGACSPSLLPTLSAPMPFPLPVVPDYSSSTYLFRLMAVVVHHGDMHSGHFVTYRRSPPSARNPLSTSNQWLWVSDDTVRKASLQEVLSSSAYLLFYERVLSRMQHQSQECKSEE
TEST_SUMMARY: inhibitors of ubiquitin-specific protease 30 deubiquitylating enzyme, concentration dependence, in vitro biochemical, validation of primary hits (AID 1645865)
ASSAY_CONDITIONS: purified USP30, Ub-rhodamine cleavage, fluorescence, 2 h
The source made the active and inactive calls.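 The calls were made as follows: active = maximal inhibition of the USP30 enzyme reaching 30% or more across the dose series; inactive = the rest.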
// allowed return values: yes (1) (active), no (0) (inactive)

{"columns": ["MOLECULE_SMILES", "MEASURED_ON", "CLASS_ASSIGNMENT"],
 "data": [
  ["Cn1c(=O)cc(SCC(=O)NC2CCN(Cc3ccccc3)CC2)c2ccc(Cl)cc21", "UniProt Q70CQ3", "yes (1)"],
  ["COc1cccc(CC(=O)Nc2cc(F)c3nc(N4CCOCC4)ccc3c2)c1", "UniProt Q70CQ3", "no (0)"],
  ["O=C(CNc1ccc(F)c(Cl)c1)Nc1ccc2c(c1)OCCO2", "UniProt Q70CQ3", "no (0)"],
  ["Cc1noc(-c2cccn(Cc3cccc(C(F)(F)F)c3)c2=O)n1", "UniProt Q70CQ3", "no (0)"],
  ["Cc1nc(C(=O)NC2(O)C(=O)c3ccccc3C2=O)cs1", "UniProt Q70CQ3", "yes (1)"],
  ["Cc1cccc(C(=O)OCC(=O)Nc2ccc3[nH]c(=O)[nH]c3c2)c1C", "UniProt Q70CQ3", "yes (1)"]
]}

API: the following record is the query input.
Per the records of this test, what outcome belongs to Cn1c(=O)c2cc(C(=O)Nc3ccc(F)cc3)cnc2n(C)c1=O ?
yes (1)

Cited source: PubChem BioAssay AID1645865
